# TARGET OR SYSTEM: T1, mouse PAI-1 (mouse, UniProt P22777 24-401)
# T1 sequence: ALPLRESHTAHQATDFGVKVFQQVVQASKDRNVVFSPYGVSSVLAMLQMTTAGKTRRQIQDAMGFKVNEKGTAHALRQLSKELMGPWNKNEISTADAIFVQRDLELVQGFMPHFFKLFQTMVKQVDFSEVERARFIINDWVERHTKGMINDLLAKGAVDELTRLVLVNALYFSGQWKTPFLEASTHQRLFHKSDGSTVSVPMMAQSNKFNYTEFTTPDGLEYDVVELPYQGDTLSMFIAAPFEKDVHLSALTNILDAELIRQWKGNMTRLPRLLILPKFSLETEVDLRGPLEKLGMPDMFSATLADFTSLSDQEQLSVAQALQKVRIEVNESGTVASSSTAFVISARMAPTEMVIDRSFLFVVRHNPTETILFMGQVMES
# PROCEDURE TEXT: cell-based or functional assay
ASSAY ENDPOINT: IC50 HT-1080 Exo PAI-1
Express your answer as a number followed by its unit.

Before answering, review these 5 worked examples.
Ask: Item under review: Antibody 20, IgG1, not germlined (antibody, V domains shown, whole IgG1; also called Ab 20) VH: QVQLQQSGAEVKKPGSSVKVSCKASGGTFSSYAISWVRQAPGQGLEWMGGIIPTFGTANYAQKFQGRVTITADESTSTAYMELSSLRSEDTAVYYCAREKRQWLEGHFDYWGRGTLVTVSS VL: DIQMTQSPSTLSASVGDRVTITCRASEGIYHELAWYQQKPGKAPKLLIYRASSLASGVPSRFSGSRSGTEFTLTISSLQPDDFATYYCQQYSDYPLTFGGGTKVEIK . Reported IC50 HT-1080 Exo PAI-1?
Result: 5.9 nM

Ask: Follow-up item: Antibody 16, scFv (scFv, V domains shown) VH: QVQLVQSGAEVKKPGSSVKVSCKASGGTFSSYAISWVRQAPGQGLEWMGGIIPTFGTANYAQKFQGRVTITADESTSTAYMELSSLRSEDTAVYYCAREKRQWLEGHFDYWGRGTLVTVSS VL: DIQMTQSPSTLSASVGDRVTITCRASESIYHSLAWYQQKPGKAPKLLIYKASSLASGVPSRFSGSRSGTEFTLTISSLQPDDFATYYCQQYSNYPLTFGGGTKVEIK
Result: 17.6 nM

Ask: Query Antibody 01, IgG1, not germlined (antibody, V domains shown) VH: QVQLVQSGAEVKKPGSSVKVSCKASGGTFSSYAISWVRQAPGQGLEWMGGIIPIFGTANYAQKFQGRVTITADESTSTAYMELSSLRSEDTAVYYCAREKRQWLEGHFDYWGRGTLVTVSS VL: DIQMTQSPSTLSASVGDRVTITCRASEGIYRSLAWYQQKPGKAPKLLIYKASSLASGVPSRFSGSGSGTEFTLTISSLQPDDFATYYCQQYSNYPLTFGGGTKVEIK next
Result: 15.8 nM

Ask: Entry Antibody 27, scFv (scFv, V domains shown) VH: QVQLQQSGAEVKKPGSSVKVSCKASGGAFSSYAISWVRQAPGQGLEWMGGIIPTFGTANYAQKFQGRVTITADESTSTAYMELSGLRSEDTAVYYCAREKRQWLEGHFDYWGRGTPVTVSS VL: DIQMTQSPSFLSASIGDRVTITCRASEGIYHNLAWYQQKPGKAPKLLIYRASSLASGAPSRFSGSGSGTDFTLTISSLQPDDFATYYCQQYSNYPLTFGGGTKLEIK please
Result: 16.4 nM

Ask: Item: Antibody 27, IgG1, not germlined (antibody, V domains shown, whole IgG1; also called Ab 27) VH: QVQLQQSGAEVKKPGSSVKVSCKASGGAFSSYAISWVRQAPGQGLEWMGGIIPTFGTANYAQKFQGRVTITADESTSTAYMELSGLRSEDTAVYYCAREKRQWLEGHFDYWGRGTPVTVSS VL: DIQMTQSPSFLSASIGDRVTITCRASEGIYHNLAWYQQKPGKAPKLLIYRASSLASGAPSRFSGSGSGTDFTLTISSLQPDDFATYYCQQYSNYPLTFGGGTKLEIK
Result: 7.8 nM

Next:
Ask: Could you tell me which IC50 HT-1080 Exo PAI-1 is on file for Antibody 01, scFv (scFv, V domains shown) VH: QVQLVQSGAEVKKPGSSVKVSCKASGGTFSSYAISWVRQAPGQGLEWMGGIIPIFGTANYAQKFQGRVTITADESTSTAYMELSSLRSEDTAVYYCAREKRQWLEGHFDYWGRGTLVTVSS VL: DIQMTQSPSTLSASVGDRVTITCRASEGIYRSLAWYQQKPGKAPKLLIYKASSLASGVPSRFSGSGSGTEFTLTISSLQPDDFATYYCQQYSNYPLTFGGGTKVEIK ?
Result: 34.5 nM

Ask: Cool, now Antibody 08, scFv (scFv, V domains shown) VH: QVQLVQSGAEVKKPGSSVKVSCKASGGTFSSYAISWVRQAPGQGLEWMGGIIPTFGTANYAQKFQGRVTITADESTSTAYMELSSLRSEDTAVYYCARERRQWLEGHFDYWGRGTLVTVSS VL: DIQMTQSPSTLSASVGDRVTITCRASEGIYHNLAWYQQKPGKAPKLLIYKASSLASGVPSRFSGSRSGTEFTLTISSLQPDDFATYYCQQYSNYPLTFGGGTKVEIK
Result: 26.2 nM

The measurements presented in this section are drawn from patent US20120114652A1.
